Source of measurements: paper PMC8752837

- target-desc: Human BAK-∆TM-His6 (BAK) (Homo sapiens)
- Construct: C-terminus truncated recombinant human BAK containing C-terminal 6× histidine tag (MEAS-BAK); made in house; host or cells: E. coli T7 Express pLac I/Y
- Sequence (Q16611 1-186 limits assumed): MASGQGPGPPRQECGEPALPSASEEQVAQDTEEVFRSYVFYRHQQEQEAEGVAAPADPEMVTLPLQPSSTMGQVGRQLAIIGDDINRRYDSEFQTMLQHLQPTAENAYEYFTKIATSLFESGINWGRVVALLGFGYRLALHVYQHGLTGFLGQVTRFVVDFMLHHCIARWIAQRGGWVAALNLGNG
- test: Liposome permeabilization assay (ANTS/DPX dye release from LUVs): activation of WT BAK by BH3 peptides
- Format: biochemical
- Set-up: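 traces normalized between buffer minimum and 3% CHAPS maximum fluorescence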
- condition-description: 50 μM peptide + 50 nM BAK; AUC 0-88 mins of liposome permeabilization; Experiment-3, mean of N replicates
For each entry below, report its AUC for Experiment-3 (Mean) value.
Answers are plain numbers.

Ac-EDIIRNIARHFAQVGDSMDRSI-NH2 [F(2)] : 8.2141

Provide AUC for Experiment-3 (Mean) values for the following items, in order.
1. Ac-EDIIRNIARHLAQWGDSMDRSI-NH2 [W(3)]
2. Ac-EDIIRNIARHLAQVGDSYDRSI-NH2 [Y(4)]
3. Ac-EDWIRNIARHLAQVGDSMDRSI-NH2 [W(0)]
4. Ac-EDIIRNIARHLAQFGDSMDRSI-NH2 [F(3)]

(A)
7.8089
24.539
12.1647
17.889
